B1: Zinc finger MYM-type protein 6, residues 427 to 504; numbered along this chain, O95789 (parent)
chain: KLKCQHCNHLFATKPELLFYKGKMFLFCGKNCSDEYKKKNKVVAMCDYCKLQKIIKETVRFSGVDKPFCSEVCKFLSA

Variants of: B1
Run description: abundance fitness (aPCA) (normalised: wild type 0, dead -1); higher = more abundant; growth selection in yeast, the domain comes from the species named
Protocol conditions: Homo sapiens
# abundance fitness listing for each entry below
I'd appreciate a reply containing only the number, no unit.

{"columns": ["Residue sequence", "abundance fitness"],
 "data": [
  ["KLKCQHCNHLFATKPELLFYKGKMFLFCGKNCSDEYPKKNKVVAMCDYCKLQKIIKETVRFSGVDKPFCSEVCKFLSA [K37P]", -0.114],
  ["KLKCQHCNHLFATKPELLFYKGKMFLFCGKNCSDEYKKKNKVVAMCDMCKLQKIIKETVRFSGVDKPFCSEVCKFLSA [Y48M]", -0.65],
  ["KLKCQHCNHLFATKPELLFYKGKMFLFCGKNCSDEYKKKNKVVAMCHYCKLQKIIKETVRFSGVDKPFCSEVCKFLSA [D47H]", 0.26]
]}

Prompt line: Given the variant KLKCQHCNHLFATKPELLFYKGKMFLFCHKNCSDEYKKKNKVVAMCDYCKLQKIIKETVRFSGVDKPFCSEVCKFLSA [G29H] , what is its reported abundance fitness?
Response line: -0.333

Prompt line: Given the variant KLKCQHCNHLFATKPELLFYKGKMFLFCGKNCSDMYKKKNKVVAMCDYCKLQKIIKETVRFSGVDKPFCSEVCKFLSA [E35M] , what is its reported abundance fitness?
Response line: -0.054

Origin of measurements: the Human Domainome abundance scans (Beltran et al. 2025)
